# AUC listing for each entry below
- ASSAY EXPLANATION: oral administration to mice: plasma level of non-ester compound (compound [II]), AUC and bioavailability
- Format: in vivo
- CONDITION SET: compound [II] in plasma, 100 mg/kg (in terms of compound [II]), zero to 2 hours
Where a name gives a salt, the structure may show the parent alone.
Note: state the figure and append the unit.

Solved cases (2 shown):
{"columns": ["COMPOUND", "AUC"],
 "data": [
  ["CC(OC(=O)OC1CCCCC1C)OC(=O)C1=C(CSc2nnnn2CCN(C)C)CS[C@@H]2[C@H](NC(=O)Cc3csc(N)n3)C(=O)N12 (stereo partly drawn)", "35400 ng·h/mL"],
  ["CN(C)CCn1nnnc1SCC1=C(C(=O)OCOC(=O)OC2CCCCC2)N2C(=O)[C@@H](NC(=O)Cc3csc(N)n3)[C@H]2SC1 [Example 1-1, Dihydrochloride]", "30000 ng·h/mL"]
]}

Turning now to a further compound:
Exercise: Quick check: AUC of CCCC(OC(=O)OC1CCCCC1)OC(=O)C1=C(CSc2nnnn2CCN(C)C)CS[C@@H]2[C@H](NC(=O)Cc3csc(N)n3)C(=O)N12 (stereo partly drawn) ?
Solution: 36300 ng·h/mL

----------
# AUC listing for each entry below
- ASSAY EXPLANATION: oral administration to mice: plasma level of non-ester compound (compound [II]), AUC and bioavailability
- Assay type: in vivo
- CONDITION SET: compound [II] in plasma, 100 mg/kg (in terms of compound [II]), zero to 2 hours
Provide only the numeric value, understood in ng·h/mL.

Solved cases (5 shown):
{"columns": ["COMPOUND", "U", "READOUT VALUE"],
 "data": [
  ["CCOC(=O)OC(C)OC(=O)C1=C(CSc2nnnn2CCN(C)C)CS[C@@H]2[C@H](NC(=O)Cc3csc(N)n3)C(=O)N12 (stereo partly drawn) [A, reference compound]", "ng·h/mL", 9280],
  ["CC1CCCC(OC(=O)OC(C)OC(=O)C2=C(CSc3nnnn3CCN(C)C)CS[C@@H]3[C@H](NC(=O)Cc4csc(N)n4)C(=O)N23)C1 (stereo partly drawn)", "ng·h/mL", 30100],
  ["CN(C)CCn1nnnc1SCC1=C(C(=O)OCOC(=O)OC2CCCCCCCCCCC2)N2C(=O)[C@@H](NC(=O)Cc3csc(N)n3)[C@H]2SC1", "ng·h/mL", 33100],
  ["CCC(OC(=O)OC1CCCCC1)OC(=O)C1=C(CSc2nnnn2CCN(C)C)CS[C@@H]2[C@H](NC(=O)Cc3csc(N)n3)C(=O)N12 (stereo partly drawn)", "ng·h/mL", 31300],
  ["CC(C)[C@@H]1CC[C@@H](C)C[C@H]1OC(=O)OCOC(=O)C1=C(CSc2nnnn2CCN(C)C)CS[C@@H]2[C@H](NC(=O)Cc3csc(N)n3)C(=O)N12", "ng·h/mL", 29400]
]}

Exercise: Quick check: AUC of CC(OC(=O)OC1CCCCC1)OC(=O)C1=C(CSc2nnnn2CCN(C)C)CS[C@@H]2[C@H](NC(=O)Cc3csc(N)n3)C(=O)N12.Cl.Cl (stereo partly drawn) ?
Solution: 30000
